# System: PHAMI: lesser canary grass (Phalaris minor)
# assayOverview: Post-emergent Test III, herbicidal activity in wheat and barley
# Assay type: in vivo
# recordedConditions: Phalaris minor, post-emergence, 504 h; 140 g ai/ha; read-out: Visual Growth Reduction (%) 21 Days After Application PHAMI
measuredProperty: pest or weed control at 140 g/ha

smilesData | pest or weed control at 140 g/ha
Nc1c(F)c(-c2ccc(I)cc2)nc(C(=O)O)c1Cl | 95 to 100%

Hi there! I need pest or weed control at 140 g/ha for each item below, if you can.
1. COC(=O)c1nc(-c2ccc(I)cc2)c(F)c(N)c1Cl
2. N#Cc1ccc(-c2nc(C(=O)O)c(Cl)c(N)c2F)cc1
3. Nc1c(F)c(-c2ccc(Cl)c(F)c2)nc(C(=O)O)c1Cl

75 to 84%
45 to 59%
85 to 94%
